FYI, the data here is from the supplement of paper PMC11246515.

Listed next: entries and their corresponding total protein half-life in vivo.
measurement-notes: total protein half-life in vivo (active degradation + dilution); higher = more stable protein
experimental-parameters: E. coli NCM3722 delta-hslV; growth: N-lim chemostat; doubling time 6 h
attribute-measured: total protein half-life in vivo (h)

>>> result_number("MSKRLPPLNALRVFDAAARHLSFTRAAEELFVTQAAVSHQIKSLEDFLGLKLFRRRNRSLLLTEEGQSYFLDIKEIFSQLTEATRKLQARSAKGALTVSLLPSFAIHWLVPRLSSFNSAYPGIDVRIQAVDRQEDKLADDVDVAIFYGRGNWPGLRVEKLYAEYLLPVCSPLLLTGEKPLKTPEDLAKHTLLHDASRRDWQTYTRQLGLNHINVQQGPIFSHSAMVLQAAIHGQGVALANNVMAQSEIEAGRLVCPFNDVLVSKNAFYLVCHDSQAELGKIAAFRQWILAKAAAEQEKFRFRYEQ [P0A9F6]")
5.94
>>> result_number("MTTKKADYIWFNGEMVRWEDAKVHVMSHALHYGTSVFEGIRCYDSHKGPVVFRHREHMQRLHDSAKIYRFPVSQSIDELMEACRDVIRKNNLTSAYIRPLIFVGDVGMGVNPPAGYSTDVIIAAFPWGAYLGAEALEQGIDAMVSSWNRAAPNTIPTAAKAGGNYLSSLLVGSEARRHGYQEGIALDVNGYISEGAGENLFEVKDGVLFTPPFTSSALPGITRDAIIKLAKELGIEVREQVLSRESLYLADEVFMSGTAAEITPVRSVDGIQVGEGRCGPVTKRIQQAFFGLFTGETEDKWGWLDQVNQ [P0AB80]")
3.48
>>> result_number("MNYQNDDLRIKEIKELLPPVALLEKFPATENAANTVAHARKAIHKILKGNDDRLLVVIGPCSIHDPVAAKEYATRLLALREELKDELEIVMRVYFEKPRTTVGWKGLINDPHMDNSFQINDGLRIARKLLLDINDSGLPAAGEFLDMITPQYLADLMSWGAIGARTTESQVHRELASGLSCPVGFKNGTDGTIKVAIDAINAAGAPHCFLSVTKWGHSAIVNTSGNGDCHIILRGGKEPNYSAKHVAEVKEGLNKAGLPAQVMIDFSHANSSKQFKKQMDVCADVCQQIAGGEKAIIGVMVESHLVEGNQSLESGEPLAYGKSITDACIGWEDTDALLRQLANAVKARRG [P0AB91]")
2.76
>>> result_number("MIIYLHGFDSNSPGNHEKVLQLQFIDPDVRLISYSTRHPKHDMQHLLKEVDKMLQLNVDERPLICGVGLGGYWAERIGFLCDIRQVIFNPNLFPYENMEGKIDRPEEYADIATKCVTNFREKNRDRCLVILSRNDEALNSQRTSEELHHYYEIVWDEEQTHKFKNISPHLQRIKAFKTLG [P0A8E1]")
4.44
>>> result_number("MTHFSQQDNFSVAARVLGALFYYAPESAEAAPLVAVLTSDGWETQWPLPEASLAPLVTAFQTQCEETHAQAWQRLFVGPWALPSPPWGSVWLDRESVLFGDSTLALRQWMREKGIQFEMKQNEPEDHFGSLLLMAAWLAENGRQTECEELLAWHLFPWSTRFLDVFIEKAEHPFYRALGELARLTLAQWQSQLLIPVAVKPLFR")
4.18
